Molecular target: S. aureus SPase (Staphylococcus aureus, UniProt P0A070)
Sequence (P0A070 whole entry): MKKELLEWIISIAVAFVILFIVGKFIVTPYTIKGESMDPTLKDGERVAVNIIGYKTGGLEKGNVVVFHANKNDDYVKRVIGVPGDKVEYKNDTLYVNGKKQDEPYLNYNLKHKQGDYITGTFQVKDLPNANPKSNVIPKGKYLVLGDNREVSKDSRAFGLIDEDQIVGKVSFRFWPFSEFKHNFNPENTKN
Assay: biochemical
Conditions: IC 50 (nM) S. aureus, 20 μM substrate, 10 minutes preincubation
*1 amine or outer side, *2 acyl side, *3 side chain or, on linkers, in order; H or OH if unused. Where a SMILES comes first, the peptide text is derived from it. [ ]: non-standard residue; d: D form. The star is where a group is joined. boroAla((+)-pinanediol) = C[C@H](N*)B1O[C@@H]2C[C@@H]3C[C@@H](C3(C)C)[C@]2(C)O1; Biphenylcarbonyl(4'-Bu) = CCCCc1ccc(-c2ccc(C(=O)*)cc2)cc1; Benzoyl(4-(4-Cl-Ph)) = O=C(c1ccc(-c2ccc(Cl)cc2)cc1)*; X16 = O=S(=O)(c1ccc(-c2ccc(Cl)cc2)cc1)*; X10 = O=C(c1ccc(-c2ccc(Cl)cc2)nc1)*; X1 = C[C@H](N[*:1])C(=O)C(=O)[*:2]; Octanoyl = CCCCCCCC(=O)*; Dab = NCC[C@H](N)C(=O)O; Dap = NC[C@H](N)C(=O)O; CF3 = FC(F)(F)*; X13 = COCCCN*
quantity name: IC50 (nM)

{"compound": "C[C@H](NC(=O)[C@H](CCCCN)NC(=O)[C@H](C)NC(=O)[C@@H](NC(=O)[C@H](CCN)NC(=O)c1ccc(-c2ccc(Cl)cc2)nc1)[C@@H](C)O)B1O[C@@H]2C[C@@H]3C[C@@H](C3(C)C)[C@]2(C)O1 [Compound 118] (X10-[Dab]TAK-{boroAla((+)-pinanediol)})", "quantity name": "IC50", "meas value": 70}
{"compound": "COCCCNC(=O)C(=O)[C@H](C)NC(=O)[C@H](CCCCN)NC(=O)[C@H](C)NC(=O)[C@@H](NC(=O)[C@H](CN)NC(=O)c1ccc(-c2ccc(Cl)cc2)cc1)[C@@H](C)O [Compound 101] ({Benzoyl(4-(4-Cl-Ph))}-[Dap]TAK[X1]-X13)", "quantity name": "IC50", "meas value": 1600}
{"compound": "CCNC(=O)C(=O)[C@H](C)NC(=O)[C@H](CCCCN)NC(=O)[C@H](C)NC(=O)[C@@H](NC(=O)[C@H](CN)NC(=O)c1ccc(-c2ccc(Cl)cc2)cc1)[C@@H](C)O [Compound 102] ({Benzoyl(4-(4-Cl-Ph))}-[Dap]TAK[X1]-NHEt)", "quantity name": "IC50", "meas value": 580}
{"compound": "C[C@H](NC(=O)[C@H](CCCCN)NC(=O)[C@H](C)NC(=O)[C@@H](NC(=O)[C@H](CCCCN)NS(=O)(=O)c1ccc(-c2ccc(Cl)cc2)cc1)[C@@H](C)O)B1O[C@@H]2C[C@@H]3C[C@@H](C3(C)C)[C@]2(C)O1 [Compound 128] (X16-KTAK-{boroAla((+)-pinanediol)})", "quantity name": "IC50", "meas value": 75}
{"compound": "CC(=O)N[C@@H](CCN)C(=O)N[C@H](C(=O)N[C@@H](C)C(=O)N[C@@H](CCCCN)C(=O)N[C@@H](C)B1O[C@@H]2C[C@@H]3C[C@@H](C3(C)C)[C@]2(C)O1)[C@@H](C)O [Compound 113] (Ac-[Dab]TAK-{boroAla((+)-pinanediol)})", "quantity name": "IC50", "meas value": 1200}
{"compound": "CCCCc1ccc(-c2ccc(C(=O)N[C@@H](CCN)C(=O)N[C@H](C(=O)N[C@@H](C)C(=O)N[C@@H](CCCCN)C(=O)N[C@@H](C)C(=O)C(F)(F)F)[C@@H](C)O)cc2)cc1 [Compound 210] ({Biphenylcarbonyl(4'-Bu)}-[Dab]TAKA-CF3)", "quantity name": "IC50", "meas value": 2300}
{"compound": "CCCCCCCC(=O)N[C@@H](CCN)C(=O)N[C@H](C(=O)N[C@@H](C)C(=O)N[C@@H](CCCCN)C(=O)N[C@@H](C)B1O[C@@H]2C[C@@H]3C[C@@H](C3(C)C)[C@]2(C)O1)[C@@H](C)O [Compound 114] (Octanoyl-[Dab]TAK-{boroAla((+)-pinanediol)})", "quantity name": "IC50", "meas value": 250}

----------
System: Escherichia coli strain MC4100 IMP-4213, which harbors an LptD mutation
Settings: E. coli MC4100 IMP-4213; 35° C., 22 hours
Where a SMILES comes first, the peptide text is derived from it. The star is where a group is joined. boroAla((+)-pinanediol) = C[C@H](N*)B1O[C@@H]2C[C@@H]3C[C@@H](C3(C)C)[C@]2(C)O1; Propanoyl(3-decylamino) = CCCCCCCCCCNCCC(=O)*; X19 = CCCCCCCCCCN(C)CCC(=O)*; boroAla = C[C@H](N*)B(O)O
Each entry below carries its recorded MIC (μg/mL) E. coli.

{"compound": "CCCCCCCCCCNCCN[C@@H](CC(N)=O)C(=O)N[C@H](C(=O)N[C@@H](C)C(=O)N[C@@H](CCCCN)C(=O)N[C@@H](C)B(O)O)[C@@H](C)O [Compound 243]", "modifier sign": ">", "MIC (μg/mL) E. coli (µg/mL)": 64}
{"compound": "CCCCCCCCCCNCCC(=O)N[C@@H](CCCCN)C(=O)N[C@H](C(=O)N[C@@H](C)C(=O)N[C@@H](CCCCN)C(=O)N[C@@H](C)B(O)O)[C@@H](C)O [Compound 218] ({Propanoyl(3-decylamino)}-KTAK-boroAla)", "modifier sign": ">", "MIC (μg/mL) E. coli (µg/mL)": 64}
{"compound": "CCCCCCCCCCCCCC(=O)N[C@@H](CCCCN)C(=O)N[C@@H](C)C(=O)N[C@@H](CCCCN)C(=O)N[C@@H](C)B1O[C@@H]2C[C@@H]3C[C@@H](C3(C)C)[C@]2(C)O1 [Compound 123]", "modifier sign": "=", "MIC (μg/mL) E. coli (µg/mL)": 4}
{"compound": "CCCCCCCCCCN(C)CCC(=O)N[C@@H](CCCCN)C(=O)N[C@H](C(=O)N[C@@H](C)C(=O)N[C@@H](CCCCN)C(=O)N[C@@H](C)B1O[C@@H]2C[C@@H]3C[C@@H](C3(C)C)[C@]2(C)O1)[C@@H](C)O [Compound 240] (X19-KTAK-{boroAla((+)-pinanediol)})", "modifier sign": "=", "MIC (μg/mL) E. coli (µg/mL)": 32}

----------
Target: S. aureus SPase (Staphylococcus aureus)
Assay: biochemical
Conditions: IC 50 (nM) S. aureus, 20 μM substrate, 10 minutes preincubation
*1 amine or outer side, *2 acyl side, *3 side chain or, on linkers, in order; H or OH if unused. Where a SMILES comes first, the peptide text is derived from it. [ ]: non-standard residue; d: D form. The star is where a group is joined. boroAla((+)-pinanediol) = C[C@H](N*)B1O[C@@H]2C[C@@H]3C[C@@H](C3(C)C)[C@]2(C)O1; Biphenylcarbonyl(4'-Bu) = CCCCc1ccc(-c2ccc(C(=O)*)cc2)cc1; Benzoyl(4-(4-Cl-Ph)) = O=C(c1ccc(-c2ccc(Cl)cc2)cc1)*; NH(2-(2-pyridyl)ethyl) = c1ccc(CCN*)nc1; X1 = C[C@H](N[*:1])C(=O)C(=O)[*:2]; aThr = C[C@H](O)[C@H](N)C(=O)O; X2 = C[C@H](N*)C(=O)c1ncco1; Decanoyl = CCCCCCCCCC(=O)*; boroAla = C[C@H](N*)B(O)O; Dab = NCC[C@H](N)C(=O)O; Dap = NC[C@H](N)C(=O)O; NHcPr = C1CC1N*; NHBu = CCCCN*
quantity name: IC50 (nM)

{"compound": "CCCCc1ccc(-c2ccc(C(=O)N[C@@H](CCN)C(=O)N[C@H](C(=O)N[C@@H](C)C(=O)N[C@@H](CCCCN)C(=O)N[C@@H](C)C(=O)C3OC3C)[C@@H](C)O)cc2)cc1 (single isomer, unassigned) [Compound 203 P2]", "meas value": 1000}
{"compound": "CCCCc1ccc(-c2ccc(C(=O)N[C@@H](CCN)C(=O)N[C@H](C(=O)N[C@@H](C)C(=O)N[C@@H](CCCCN)C(=O)N[C@@H](C)B3O[C@@H]4C[C@@H]5C[C@@H](C5(C)C)[C@]4(C)O3)[C@H](C)O)cc2)cc1 [Compound 125] ({Biphenylcarbonyl(4'-Bu)}-[Dab][aThr]AK-{boroAla((+)-pinanediol)})", "meas value": 280}
{"compound": "C[C@H](NC(=O)[C@@H](NC(=O)[C@H](CN)NC(=O)c1ccc(-c2ccc(Cl)cc2)cc1)[C@@H](C)O)C(=O)N[C@@H](CCCCN)C(=O)N[C@@H](C)C(=O)C(=O)NCCc1ccccn1 [Compound 104] ({Benzoyl(4-(4-Cl-Ph))}-[Dap]TAK[X1]-{NH(2-(2-pyridyl)ethyl)})", "meas value": 840}
{"compound": "CCCCCCCCCC(=O)N[C@@H](CCN)C(=O)N[C@H](C(=O)N[C@@H](C)C(=O)N[C@@H](CCCCN)C(=O)N[C@@H](C)B(O)O)[C@@H](C)O [Compound 120] (Decanoyl-[Dab]TAK-boroAla)", "meas value": 120}
{"compound": "CCCCNC(=O)C(=O)[C@H](C)NC(=O)[C@H](CCCCN)NC(=O)[C@H](C)NC(=O)[C@@H](NC(=O)[C@H](CN)NC(=O)c1ccc(-c2ccc(Cl)cc2)cc1)[C@@H](C)O [Compound 105] ({Benzoyl(4-(4-Cl-Ph))}-[Dap]TAK[X1]-NHBu)", "meas value": 1300}
{"compound": "C[C@H](NC(=O)[C@@H](NC(=O)[C@H](CN)NC(=O)c1ccc(-c2ccc(Cl)cc2)cc1)[C@@H](C)O)C(=O)N[C@@H](CCCCN)C(=O)N[C@@H](C)C(=O)c1ncco1 [Compound 212] ({Benzoyl(4-(4-Cl-Ph))}-[Dap]TAK-X2)", "meas value": 2600}
{"compound": "C[C@H](NC(=O)[C@@H](NC(=O)[C@H](CN)NC(=O)c1ccc(-c2ccc(Cl)cc2)cc1)[C@@H](C)O)C(=O)N[C@@H](CCCCN)C(=O)N[C@@H](C)C(=O)C(=O)NC1CC1 [Compound 109] ({Benzoyl(4-(4-Cl-Ph))}-[Dap]TAK[X1]-NHcPr)", "meas value": 2000}
{"compound": "CCCCCCCCCCCCCC(=O)N[C@@H](CCCCN)C(=O)N[C@@H](C)C(=O)N[C@@H](CCCCN)C(=O)N[C@@H](C)B1O[C@@H]2C[C@@H]3C[C@@H](C3(C)C)[C@]2(C)O1 [Compound 123]", "meas value": 7800}

The origin of these recorded values is patent US20160194358A1.
